Can you tell me GI50 for the items I'm about to list?
- Test system: Karpas-422 cell lines
- assay summary: Karpas-422 viability assay (Cell Titer-Glo, Day 8)
- Assay type: cell-based
- particulars: Homo sapiens, KARPAS-422, 192 h, Cell Titer-Glo on Day 8
- Description: Karpas-422 cell lines were obtained from DSMZ (Braunschweig, Germany) and were grown in RPMI-1640 media. All media contained 10% fetal bovine serum (FBS) and 1% penicillin/streptomycin (Invitrogen). 20K cells per well were plated onto 96 well compound coated plates. […] Relative cell numbers were assessed by Cell Titer-Glo luminescent cell viability assay (Promega) on Day 8. […]
Answers are plain numbers, in nM.

Please give GI50 for each item listed below.
1. CSc1cc(C)[nH]c(=O)c1CNC(=O)c1cc(Cl)c2c(c1C)OC(C)(C1CCC(N3CC(F)C3)CC1)O2 (single isomer, unassigned)
2. COC1CN(C2CCC(C3(C)Oc4c(Cl)cc(C(=O)NCc5c(SC)cc(C)[nH]c5=O)c(C)c4O3)CC2)C1 (single isomer, unassigned)
3. CSc1cc(C)[nH]c(=O)c1CNC(=O)c1cc(Cl)c2c(c1C)O[C@@](C)([C@H]1CC[C@H](N(C)C)CC1)O2
4. CSc1cc(C)[nH]c(=O)c1CNC(=O)c1cc(Cl)c2c(c1C)OC(C)(C1CCC(N3CC(OC4CC4)C3)CC1)O2 (single isomer, unassigned)
5. CSc1cc(C)[nH]c(=O)c1CNC(=O)c1cc(Cl)c2c(c1C)OC(C)(C1CCC(N3CC(F)(F)C3)CC1)O2 (single isomer, unassigned) [Example 7-Enantiomer 2]
6. CSc1nc(C)[nH]c(=O)c1CNC(=O)c1cc(Cl)c2c(c1C)O[C@@](C)([C@H]1CC[C@H](N(C)C)CC1)O2

1. 4.4
2. 3.5
3. 4
4. 3.7
5. 12
6. 22
